Answer each item with its documented EC50.
- MEASURED_TARGET: F508delCFTR (Homo sapiens, UniProt P13569, DEL508-508)
- Construct: expressed in transfected cells; host or cells: CFBE41o- human lung-derived epithelial cells (CFBE4lo-F508delCFTR-HRP), doxycycline-inducible
- Sequence (P13569 with tags, fused parts or gaps DEL508-508): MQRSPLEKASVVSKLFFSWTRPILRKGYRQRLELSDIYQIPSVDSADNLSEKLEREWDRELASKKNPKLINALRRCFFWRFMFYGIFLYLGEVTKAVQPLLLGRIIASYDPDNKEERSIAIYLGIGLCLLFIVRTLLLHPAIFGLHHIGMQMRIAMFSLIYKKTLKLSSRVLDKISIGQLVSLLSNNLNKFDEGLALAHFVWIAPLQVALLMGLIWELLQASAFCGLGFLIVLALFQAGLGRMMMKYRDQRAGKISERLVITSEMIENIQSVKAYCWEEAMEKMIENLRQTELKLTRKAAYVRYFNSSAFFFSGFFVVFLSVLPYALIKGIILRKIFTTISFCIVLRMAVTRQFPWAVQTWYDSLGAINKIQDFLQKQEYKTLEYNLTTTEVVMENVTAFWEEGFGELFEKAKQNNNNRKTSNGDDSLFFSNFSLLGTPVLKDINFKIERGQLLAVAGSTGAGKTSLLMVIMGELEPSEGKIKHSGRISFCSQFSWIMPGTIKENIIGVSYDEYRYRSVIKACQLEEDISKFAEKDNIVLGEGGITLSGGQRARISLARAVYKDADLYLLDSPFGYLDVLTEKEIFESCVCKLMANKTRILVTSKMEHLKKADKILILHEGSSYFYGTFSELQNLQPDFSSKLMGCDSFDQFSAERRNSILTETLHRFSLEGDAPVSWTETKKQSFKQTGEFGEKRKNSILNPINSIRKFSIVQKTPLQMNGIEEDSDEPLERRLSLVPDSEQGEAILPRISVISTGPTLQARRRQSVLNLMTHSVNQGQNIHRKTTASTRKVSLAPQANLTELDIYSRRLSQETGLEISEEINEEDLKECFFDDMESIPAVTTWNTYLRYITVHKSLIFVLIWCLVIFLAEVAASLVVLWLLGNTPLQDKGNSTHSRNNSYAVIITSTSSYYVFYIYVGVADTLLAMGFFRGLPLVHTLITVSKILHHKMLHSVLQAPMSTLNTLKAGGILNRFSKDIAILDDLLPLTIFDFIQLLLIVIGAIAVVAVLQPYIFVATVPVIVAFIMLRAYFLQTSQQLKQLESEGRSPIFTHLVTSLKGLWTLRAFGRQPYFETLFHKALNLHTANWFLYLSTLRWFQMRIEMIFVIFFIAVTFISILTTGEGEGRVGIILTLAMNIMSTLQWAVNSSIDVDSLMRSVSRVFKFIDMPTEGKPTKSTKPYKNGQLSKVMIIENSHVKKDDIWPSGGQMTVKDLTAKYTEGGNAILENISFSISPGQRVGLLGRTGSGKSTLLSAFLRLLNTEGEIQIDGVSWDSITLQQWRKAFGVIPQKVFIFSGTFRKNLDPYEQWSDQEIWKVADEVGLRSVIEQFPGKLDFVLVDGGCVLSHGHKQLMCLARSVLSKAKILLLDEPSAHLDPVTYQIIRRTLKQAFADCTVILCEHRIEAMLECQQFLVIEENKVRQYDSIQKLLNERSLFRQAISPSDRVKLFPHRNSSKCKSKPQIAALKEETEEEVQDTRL
- ASSAY_PROCEDURE: Cell Surface Expression-Horse Radish Peroxidase (CSE-HRP) Assay
- Assay type: cell-based
- MEASUREMENT_PARAMETERS: test compound without co-corrector; read-out: EC50 (without co-corrector)

*Q* Which value of EC50 has been reported for `COc1ccc(C(C)(C)C)cc1CN[C@H]1[C@H](C(C)(C)C)[C@@H](C(=O)O)N(C(=O)C2CC(C)(C)C2)[C@H]1c1ccccc1` in the records?
*A* 1 to 10 µM

*Q* What do you get for `CC(C)(C)[C@H]1[C@H](Nc2cncc3ccccc23)[C@H](c2ccccc2)N(C(=O)C2CCCCC2)[C@@H]1C(=O)O` ?
*A* 1 to 10 µM

*Q* Field entry: `COc1ccc(C(C)(C)C)cc1CN[C@H]1[C@H](C(C)(C)OC)[C@@H](C(=O)O)N(C(=O)OC(C)C)[C@H]1c1ccccc1`
*A* 1 to 10 µM

###

- MEASURED_TARGET: F508delCFTR (Homo sapiens, UniProt P13569, DEL508-508)
- Construct: expressed in transfected cells; host or cells: CFBE41o- human lung-derived epithelial cells (CFBE4lo-F508delCFTR-HRP), doxycycline-inducible
- ASSAY_PROCEDURE: Cell Surface Expression-Horse Radish Peroxidase (CSE-HRP) Assay
- Assay type: cell-based
- MEASUREMENT_PARAMETERS: with co-corrector (2 μM of 3-[(2R,4R)-4-({[1-(2,2-difluoro-1,3-benzodioxol-5-yl)cyclopropyl]carbonyl}amino)-7-methoxy-3,4-dihydro-2H-chromen-2-yl]benzoic acid); read-out: EC50 (with co-corrector)
pEC50: −log10 of the molar value.
Assign pEC50 to each entry below.

*Q* Entry `COc1ccc(C(C)(C)C)cc1CN[C@H]1[C@H](C(C)(C)C)[C@@H](C(=O)NS(C)(=O)=O)N(C(=O)C2CCCCC2)[C@H]1c1ccccc1` has what pEC50?
*A* 5.00 to 6.00

*Q* Now the compound `COc1ccc(C(C)(C)C)cc1CN[C@H]1[C@H](C(C)(C)C)[C@@H](C(=O)O)N(C(=O)OC(C)C)[C@H]1c1ccccc1`
*A* 5.00 to 6.00

*Q* Another compound: `CC(C)(C)[C@H]1[C@H](NCc2ccc(C(F)(F)F)cc2)[C@H](c2ccccc2)N(C(=O)C2CCCCC2)[C@@H]1C(=O)O`
*A* 5.00 to 6.00

*Q* Next record, please: `COc1cc(C(F)(F)F)ccc1CN[C@H]1[C@H](C(C)(C)C)[C@@H](C(=O)O)N(C(=O)C2CCCCC2)[C@H]1c1cccnc1N(C)C`
*A* 5.00 to 6.00

*Q* Okay, and CCCC1(O)CCC(C(=O)N2C(C(=O)O)C(C(C)(C)C)C(NCc3cc(C(C)(C)C)ccc3OC)C2c2ccccc2)CC1 (stereo not shown) ?
*A* > 6.00

*Q* And the next one, `COc1ncc(Br)cc1CN[C@H]1[C@H](C(C)(C)C)[C@@H](C(=O)O)N(C(=O)[C@@H]2CCCO2)[C@H]1c1ccccc1C(C)C` ?
*A* > 6.00

*Q* Would you kindly repeat that for `COc1ccc(C(C)(C)C)cc1CN[C@H]1[C@H](C(C)(C)C)[C@@H](C(=O)O)N(C(=O)OC(C)(C)C)[C@H]1c1cccnc1OC` ?
*A* 5.00 to 6.00

*Q* Another compound to check: `COc1ncc(C2=CCOCC2)cc1CN[C@H]1[C@H](C(C)(C)C)[C@@H](C(=O)O)N(C(=O)C2CCCCC2)[C@H]1c1ccccc1`
*A* 5.00 to 6.00

*Q* Try COc1ccc(C(C)(C)C)cc1CN[C@H]1[C@H](C(C)(C)C)[C@@H](C(=O)O)N(C(=O)C2CCCCC2)[C@H]1c1cccn(C)c1=O (racemic) next.
*A* < 5.00

*Q* Same read-out for COc1ccc(C(C)(C)C)cc1CN[C@H]1[C@H](C(C)(C)C)[C@@H](C(=O)O)N(C(=O)C2CCCC(F)(F)C2)[C@H]1c1cccnc1N(C)C (single isomer, unassigned) [Example 42] ?
*A* > 6.00

*Q* Next up: `COc1ncc(C(F)(F)F)cc1CN[C@H]1[C@H](C(C)(C)C)[C@@H](C(=O)O)N(C(=O)OC(C)C)[C@H]1c1ccccc1C`
*A* 5.00 to 6.00

*Q* Record: `COc1ncc(C(F)(F)F)cc1CN[C@H]1[C@H](C(C)(C)C)[C@@H](C(=O)O)N(C(=O)[C@@H]2CCCCO2)[C@H]1c1cccnc1N(C)C`
*A* 5.00 to 6.00

*Q* How about this compound: `COc1cc(C(F)(F)F)ccc1CN[C@H]1[C@H](C(C)(C)C)[C@@H](C(=O)O)N(C(=O)CC(C)C)[C@H]1c1ccccc1`
*A* 5.00 to 6.00
